Data origin: the antibiotic and cytotoxicity screens of Wong et al. (2023)

Test system: HSkMC
PROTOCOL_DETAILS: cytotoxicity call (relative viability < 0.9)
CONDITION_SUMMARY: 10 µM
In all, about 39,000 compounds went through this assay and about 1,500 (3.8%) were called active. The entries come from a sample that favours actives as a whole.
Please reply with one of these outcomes: yes (1) for active, no (0) for inactive

Qu. What outcome does the record of this test show for `Cc1ccc(S[C@]2(C(=O)NC(C)C)CC(=O)N(Cc3ccccc3C(F)(F)F)[C@@H]2c2ccc(CO)cc2)cc1` ?
Ans. no (0)

Qu. What outcome does the record of this test show for `C[C@@H]1CN([C@H](C)CO)C(=O)Cc2cc(NC(=O)Nc3ccc(C(F)(F)F)cc3)ccc2O[C@@H]1CN(C)CC1CCCCC1` ?
Ans. yes (1)

Qu. What outcome does the record of this test show for `C[C@@H]1CCCCO[C@@H](CN(C)C(=O)Nc2cccc3ccccc23)[C@H](C)CN([C@@H](C)CO)C(=O)c2cc(NC(=O)NC3CCCCC3)ccc2O1` ?
Ans. no (0)

Qu. What outcome does the record of this test show for `C[C@H]1CN([C@@H](C)CO)C(=O)Cc2cc(NC(=O)Nc3ccc(C(F)(F)F)cc3)ccc2O[C@@H]1CN(C)CC1CCCCC1` ?
Ans. yes (1)

Qu. What outcome does the record of this test show for `C[C@@H]1CN([C@@H](C)CO)C(=O)c2cc(NC(=O)Nc3ccc(C(F)(F)F)cc3)ccc2O[C@@H](C)CCCCO[C@H]1CN(C)C(=O)c1ccccc1` ?
Ans. no (0)

Qu. What outcome does the record of this test show for `CO[C@@H](C(=O)N(C)C[C@H]1OCc2ccccc2-c2c(n(C)c3ccccc23)C(=O)N([C@@H](C)CO)C[C@H]1C)c1ccccc1` ?
Ans. no (0)

Qu. What outcome does the record of this test show for `C[C@H]1CN([C@@H](C)CO)C(=O)Cc2cc(NC(=O)Nc3ccc(C(F)(F)F)cc3)ccc2O[C@H]1CN(C)CC1CCCCC1` ?
Ans. yes (1)

====

Tested on: HSkMC (human skeletal muscle cells)
PROTOCOL_DETAILS: cytotoxicity call (relative viability < 0.9)
CONDITION_SUMMARY: 10 µM
Screen size: about 39,000 compounds; about 1,500 (3.8%) were called active. Shown is part of a subset that was picked to be rich in actives.
Please reply with one of these outcomes: active, inactive

Qu. What outcome does the record of this test show for `COc1ccccc1CNC(=O)C[C@@H]1C[C@H]2c3cc(NC(=O)c4cccnc4)ccc3O[C@H]2[C@@H](CO)O1` ?
Ans. inactive

Qu. What outcome does the record of this test show for `C[C@@H]1CN([C@H](C)CO)C(=O)Cc2cc(NC(=O)C3CCCCC3)ccc2O[C@@H]1CN(C)Cc1ccc(-c2ccccc2)cc1` ?
Ans. active

Qu. What outcome does the record of this test show for `CCOC(=O)c1c(CN2CCN(c3ccccc3)CC2)n(-c2ccccc2)c2cc(Br)c(O)cc12` ?
Ans. active

Qu. What outcome does the record of this test show for `CCOC(=O)c1c(CN2CCN(c3ccc(C)cc3)CC2)n(-c2ccccc2)c2cc(Br)c(OC)cc12` ?
Ans. inactive

Qu. What outcome does the record of this test show for `C[C@@H]1CN([C@H](C)CO)C(=O)Cc2cc(NC(=O)C3CCCCC3)ccc2O[C@H]1CN(C)Cc1ccc(Oc2ccccc2)cc1` ?
Ans. inactive

Qu. What outcome does the record of this test show for `CCOC(=O)c1c(CNCCN(CC)CC)n(-c2ccccc2)c2cc(Br)c(OC)cc12` ?
Ans. inactive

Qu. What outcome does the record of this test show for `C[C@H]1CN([C@@H](C)CO)C(=O)Cc2cc(NC(=O)C3CCCCC3)ccc2O[C@@H]1CN(C)Cc1ccc(-c2ccccc2)cc1` ?
Ans. inactive

Qu. What outcome does the record of this test show for COc1ccc(NC(=O)CSC2=NC(C)=C(C(=O)Nc3nc4ccccc4s3)[C@H](c3ccco3)C2C#N)cc1 (some centres undefined) ?
Ans. inactive

Qu. What outcome does the record of this test show for `C[C@@H]1CCCCO[C@@H](CN(C)C(=O)CCC(F)(F)F)[C@H](C)CN([C@@H](C)CO)C(=O)c2cc(NS(=O)(=O)c3ccccc3)ccc2O1` ?
Ans. inactive
